molecular target: T1, AAV9; test: SPR, AAV on CM5 chip;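 also: surface plasmon resonance with AAV amine-coupled to the chip as ligand, nanobodies injected as analyte over a concentration series, rate constants and affinity fitted from binding curves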
T1 construct: also called adeno-associated virus serotype 9
As shown below, each of these binders has a reported koff value.
Quick reminder: number only, in s⁻¹, skip the unit.

Some solved entries appear below for comparison.
| binder | unit-symbol | koff |
| --- | --- | --- |
| A4-012 (VHH) VHH: VQLQESGGGAVQAGGSLRLSCAASGSIFSINSMGWYRQAPGKQRELVATVTRGGNTNYAGSVKGRFTISRDNAKNTVYLQMNSLRPEDTAVYYCHVDEVRESSWTTSNLWGQGTQVTVSS | s⁻¹ | 0.0694 |
| A4-040 (VHH) VHH: VQLQESGGGLVQPGGSLRLSCAASGRIFSINTMGWYRQAPGKQRELVATVTRGGSTNYADSVKGRFTISRDNAKNTVYLQMNSLRPEDTAVYYCHVDEIRQSSWTTSNLWGQGTQVTVSS | s⁻¹ | 0.00022 |

Qu. What measured koff goes with A4-006 (VHH) VHH: VQLQESGGGLVQPGGSLRLSCAASGRHFSINTMGWYRQAPGKQRELVAAVTRGGSTNYAGSVKGRFTISRDNAKNTVYLQMNSLRPEDTAVYYCHIDEVRQSSWTTSNIWGQGTQVTVSS ?
Ans. 0.0244

Qu. Also, A4-008 (VHH) VHH: VQLQESGGGLVQAGGSLRLSCAASGRAFSINTMGWYRQAPPKQRELVATVTRGGSTNYAGSVKGRFTISRDNAKNTIYLQMNSLRPEDTAVYYCHVDEVRQSSWTTSNIWGQGTQVTVSS please.
Ans. 0.00012

Qu. Also, A4-044 (VHH) VHH: VQLQESGGGLVQPGGSLRLSCAASGSSFSINTMGWYRQAPGKQRELVATVTRGGVTNYADSVKGRFTISRDNAKNTVYLQMNSLRPEDTAVYYCHVDEVRQSSWTTSNLWGQGTQVTVSS please.
Ans. 0.00188

Qu. Also, A4-015 (VHH) VHH: VQLQESGGGLVQPGGSLRLSCAASGSIFSINLMGWYRQAAGKQRELVATITPGGNTNYAGSVKGRFTISRDNAKNTVYLQMNSLRPEDTAVYYCHVDEVRQSSWTTSNLWGQGTQVTVSS please.
Ans. 0.00017

Qu. Also, A4-045 (VHH) VHH: VQLQESGGGLVQPGGSLRLSCAASGSSFSINTMGWYRQAPGKQRELVAAVTRGGVTNYADSVKGRFTISRDNAKNTVYLQMNSLRPEDTAVYYCHVDEVRQSSWTTSNLWGQGTQVTVSS please.
Ans. 0.00027
